The reported numbers originate from ChEMBL document CHEMBL4130429.

test system: CWR22R; experiment: Antiproliferative activity against human 22Rv1 cells after 72 hrs by sulforhodamine B colorimetric proliferation assay; assay type: functional, cell-based; conditions: 22Rv1, 72 h
IC50 reference

[
  {
    "Given smiles": "O=C(Nc1cccc(C(F)(F)F)c1)c1c(O)nnn1Cc1ccccc1",
    "IC50 / µM": 67.1
  },
  {
    "Given smiles": "COc1ccc(Cn2nnc(O)c2C(=O)Nc2cccc(C(F)(F)F)c2)cc1",
    "IC50 / µM": 81.4
  },
  {
    "Given smiles": "O=C(O)c1ccccc1Nc1cccc(C(F)(F)F)c1",
    "IC50 / µM": 115
  }
]

---

target: Aldo-keto reductase family 1 member C3 (Homo sapiens); test: Inhibition of recombinant human AKR1C3 expressed in Escherichia coli BL21 (DE) using [14C]androstenedione as substrate in presence of NADPH generating system
Sequence (P42330 whole entry): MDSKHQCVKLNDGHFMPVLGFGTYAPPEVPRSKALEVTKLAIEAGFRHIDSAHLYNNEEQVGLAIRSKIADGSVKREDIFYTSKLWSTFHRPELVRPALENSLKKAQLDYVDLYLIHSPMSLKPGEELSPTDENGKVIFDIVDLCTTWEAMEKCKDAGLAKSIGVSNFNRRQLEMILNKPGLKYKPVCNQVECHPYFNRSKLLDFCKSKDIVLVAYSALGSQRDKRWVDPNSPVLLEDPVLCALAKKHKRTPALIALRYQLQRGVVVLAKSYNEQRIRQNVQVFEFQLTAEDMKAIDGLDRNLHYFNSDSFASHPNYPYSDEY
pIC50: −log10 of the molar value.
Below, each entry is listed alongside its reported pIC50.

[
  {
    "Given smiles": "O=C(Nc1cccc(C(F)(F)F)c1)c1nsnc1O",
    "Tgt": "Aldo-keto reductase family 1 member C3 (Homo sapiens)",
    "pIC50": "≤ 4.30"
  },
  {
    "Given smiles": "Cn1nc(O)c(C(=O)Nc2cccc(C(F)(F)F)c2)n1",
    "Tgt": "Aldo-keto reductase family 1 member C3 (Homo sapiens)",
    "pIC50": "< 4.30"
  },
  {
    "Given smiles": "O=C(Nc1cccc(C(F)(F)F)c1)c1nonc1O",
    "Tgt": "Aldo-keto reductase family 1 member C3 (Homo sapiens)",
    "pIC50": "< 4.30"
  }
]
